The reported measurements were obtained from patent US5482954A.

test: Plasma levels in patients of phase I clinical study; type: in vivo; conditions: human, po, 100 mg/m^2, patient 2, colon, 100 mg/m^2 qd, oral, read-out: PEAK LEVEL
measured-parameter: Cmax (ng/mL)
Reply with just the number (in ng/mL).

(Q) I have this compound here, NC(=O)c1nnn(Cc2cc(Cl)c(C(=O)c3ccc(Cl)cc3)c(Cl)c2)c1N , and I need its recorded Cmax.
(A) 3610

---

Tested on: CHOm5 cells
Experiment: Carbachol-stimulated arachidonic acid release
Type: cell-based, Chinese hamster
Settings: Table K
Source text: This example illustrates the effect of selected compounds on the release of arachidonic acid from carbachol-stimulated CHOm5 cells. Carbachol is a muscarinic agonist which in the muscarinic receptor transfected CHO cells stimulates the activation of phospholipase A2, resulting in arachidonic acid release and metabolism. Downstream metabolites of arachidonic acid, prostaglandins and leukotrienes are also second messengers. […]
measured-parameter: Arachidonic Acid Release (% of Control)

NC(=O)c1nnn(Cc2cc(Cl)c(C(=O)c3ccc(Cl)cc3)c(Cl)c2)c1NC(=O)c1ccccc1: 49.2 ± 12 % of Control
Nc1c(C(=O)O)nnn1Cc1cc(Cl)c(C(=O)c2ccc(Cl)cc2)c(Cl)c1: 49.6 ± 5 % of Control
O=C(c1ccc(Cl)cc1)c1c(Cl)cc(Cn2ccnc2)cc1Cl: 92.6 ± 7 % of Control
NC(=O)c1nnn(Cc2ccc(C(=O)c3ccccc3)cc2)c1N: 100 ± 15 % of Control
NC(=O)c1nnn(Cc2cc(Cl)c(C(=O)c3ccc(Cl)cc3)c(Cl)c2)c1NC=O: 13.1 ± 3 % of Control
CC(=O)Nc1c(C(N)=O)nnn1Cc1cc(Cl)c(C(=O)c2ccc(Cl)cc2)c(Cl)c1: 73.8 ± 5.9 % of Control

For the next question, use this compound.
(Q) I have this compound here, NC(=O)c1nnn(Cc2cc(Cl)c(C(=O)c3ccc(Cl)cc3)c(Cl)c2)c1N , and I need its recorded Arachidonic Acid Release (% of Control).
(A) 50.9 ± 9 % of Control

---

assay: Cell viability by trypan blue exclusion; type: cell-based; settings: a2058 and 5r cells; average
measured-parameter: viability

(Q) I have this molecule here, NC(=O)c1nnn(Cc2cc(Cl)c(C(=O)c3ccc(Cl)cc3)c(Cl)c2)c1N [Compound 1] , and I need its recorded viability.
(A) > 96%

---

test: Plasma levels in patients of phase I clinical study; type: in vivo; settings: human, po, 100 mg/m^2, patient 1, melanoma, 100 mg/m^2 qod, oral, read-out: PEAK LEVEL
measured-parameter: Cmax (ng/mL)
Reply with just the number (in ng/mL).

(Q) I have this compound here, NC(=O)c1nnn(Cc2cc(Cl)c(C(=O)c3ccc(Cl)cc3)c(Cl)c2)c1N [Compound 1] , and I need its recorded Cmax.
(A) 1250

---

assay: Plasma levels in patients of phase I clinical study; type: in vivo; details: human, po, 200 mg/m^2, patient 5, lung, 200 mg/m^2 qod, oral, read-out: PEAK LEVEL
measured-parameter: Cmax (µg/mL)
Reply with just the number (in µg/mL).

(Q) I have this compound here, NC(=O)c1nnn(Cc2cc(Cl)c(C(=O)c3ccc(Cl)cc3)c(Cl)c2)c1N [Compound 1] , and I need its recorded Cmax.
(A) 1.77

---

experiment: Plasma levels in patients of phase I clinical study; assay type: in vivo; details: human, po, 100 mg/m^2, patient 4, ovary, 100 mg/m^2 qd, oral, read-out: PEAK LEVEL
measured-parameter: Cmax (ng/mL)
Reply with just the number (in ng/mL).

(Q) I have this molecule here, NC(=O)c1nnn(Cc2cc(Cl)c(C(=O)c3ccc(Cl)cc3)c(Cl)c2)c1N [Compound 1] , and I need its recorded Cmax.
(A) 3080

---

Test system: CHOm5 cells
Assay: Carbachol-stimulated 45Ca2+ influx
Format: cell-based, Chinese hamster
Details: Cricetulus griseus; FIG. 12, carbachol
Protocol: Calcium influx was determined using two methods. The first method involved the use of ^45 Ca^2+, while the second method utilized a fluorescent intracellular calcium chelator, Fura-2. The method using Fura-2 is semi-quantitative and is preferred for kinetic analysis and screening whereas the ^45 Ca^2+ method is quantitative. […] Stimulated uptake of radiolabelled calcium was measured as described above. […]
measured-parameter: IC50 (nM)
Reply with just the number (in nM).

(Q) I have this compound here, NC(=O)c1nnn(Cc2cc(Cl)c(C(=O)c3ccc(Cl)cc3)c(Cl)c2)c1N [Compound 1] , and I need its recorded IC50.
(A) 935

---

assay: Plasma levels in patients of phase I clinical study; type: in vivo; conditions: human, po, patient #1, read-out: concentration in the blood (peak/steady state)
measured-parameter: Cmax

(Q) I have this compound here, NC(=O)c1nnn(Cc2cc(Cl)c(C(=O)c3ccc(Cl)cc3)c(Cl)c2)c1N [Compound 1] , and I need its recorded Cmax.
(A) 1000 to 2000 ng/mL

---

experiment: Plasma levels in patients of phase I clinical study; assay type: in vivo; settings: human, po, 100 mg/m^2, patient 3, colon, 100 mg/m^2 qd, oral, read-out: PEAK LEVEL
measured-parameter: Cmax (ng/mL)
Reply with just the number (in ng/mL).

(Q) I have this compound here, NC(=O)c1nnn(Cc2cc(Cl)c(C(=O)c3ccc(Cl)cc3)c(Cl)c2)c1N , and I need its recorded Cmax.
(A) 3530
